test system: SW1783 (Low Grade Glioma); assay: combination Emax (second highest fraction inhibited in the dose matrix, 72 h); higher = more inhibition; extreme values may be limits of the assay

COMPOUND | combination Emax
C=CCn1c(=O)c2cnc(Nc3ccc(N4CCN(C)CC4)cc3)nc2n1-c1cccc(C(C)(C)O)n1 [AZD1775] + O=C(c1cc(Cc2n[nH]c(=O)c3ccccc23)ccc1F)N1CCN(C(=O)C2CC2)CC1 [Olaparib] (first compound max 1 µM, partner max 10 µM) | 0.342
C=CCn1c(=O)c2cnc(Nc3ccc(N4CCN(C)CC4)cc3)nc2n1-c1cccc(C(C)(C)O)n1 [AZD1775] + CCc1c2c(nc3ccc(O)cc13)-c1cc3c(c(=O)n1C2)COC(=O)[C@]3(O)CC [SN-38] (first compound max 1 µM, partner max 0.3 µM) | 0.825
O=C(c1cc(Cc2n[nH]c(=O)c3ccccc23)ccc1F)N1CCN(C(=O)C2CC2)CC1 [Olaparib] + CN(CC[C@H](CSC1=CC=CC=C1)NC2=C(C=C(C=C2)S(=O)(=O)NC(=O)C3=CC=C(C=C3)N4CCC(CC4)[C@H](C5=CC=CC=C5C6=CC=C(C=C6)Cl)O)S(=O)(=O)C(F)(F)F)CCO [AZD4320] (first compound max 10 µM, 7x7, partner max 1 µM) | 0.289
C[C@@H]1COCCN1c1cc(C2([S@](C)(=N)=O)CC2)nc(-c2ccnc3[nH]ccc23)n1 [AZD6738] + O=C(c1cc(Cc2n[nH]c(=O)c3ccccc23)ccc1F)N1CCN(C(=O)C2CC2)CC1 [Olaparib] (first compound max 10 µM, 7x7, partner max 10 µM) | 0.407
COc1nnc2ccc(N3CCC(c4ccc(OCCN5CCN(C)C(=O)[C@H]5C)cc4)CC3)nn12 [AZD5153] + CC1(C)CCC(CN2CCN(c3ccc(C(=O)NS(=O)(=O)c4ccc(NCC5CCOCC5)c([N+](=O)[O-])c4)c(Oc4cnc5[nH]ccc5c4)c3)CC2)=C(c2ccc(Cl)cc2)C1 [Venetoclax] (first compound max 1 µM, 7x7, partner max 1 µM) | 0.28
O=C(c1cc(Cc2n[nH]c(=O)c3ccccc23)ccc1F)N1CCN(C(=O)C2CC2)CC1 [Olaparib] + COc1nnc2ccc(N3CCC(c4ccc(OCCN5CCN(C)C(=O)[C@H]5C)cc4)CC3)nn12 [AZD5153] (first compound max 10 µM, 7x7, partner max 1 µM) | 0.319
O=C(c1cc(Cc2n[nH]c(=O)c3ccccc23)ccc1F)N1CCN(C(=O)C2CC2)CC1 [Olaparib] + Cc1c2c(nn1C)CSCc1cc(n(C)n1)CSc1cc(c3ccccc3c1)OCCCc1c(C(=O)O)n(C)c3c-2c(Cl)ccc13 [AZD5991] (first compound max 10 µM, 7x7, partner max 1 µM) | 0.0425

All values here come from the supplement of paper PMC11061612.
